Source: PubChem BioAssay (NCI)

Test system: 786-0 renal
Procedure text: NCI-60 one-dose screen, 48 h
Run parameters: 10 µM unless noted
About 83,000 compounds went through this panel and 20% of them were active in at least one assay; those are over-represented in the sample as a whole. Activity calls are given as the source filed them. Rule for the calls: active = growth percent below 10; inactive = the rest.
Classes used: 1 for active, -1 for inactive

Compound	Discrete label
CCOc1ccc2c(c1)/C(=C\C=C\C1CC(C)C3CC(OCC)CCC3N1CC)CC(C)N2CC (stereo not given)	-1
OC(c1cc(-c2ccc(Cl)cc2)nc2c(Cl)cccc12)C1CCCCN1 (stereo not given)	1
S=C1SCN(Cc2cccs2)CN1Cc1cccs1	-1
O=C(c1ccccc1)C(O)C(Br)(CBr)c1ccccc1 (stereo not given)	-1
O=[N+]([O-])c1ccc([I+]c2ccccc2)cc1	1
CN(Cc1ccccc1)c1ccc(SC#N)cc1	-1
CCCOS(=O)(=O)c1ccccc1	-1
CCC1CCCCN1C(=S)N/N=C(\C)c1ccccn1 (stereo not given)	-1
CCN(CC)CCNc1ccc([N+](=O)[O-])c2sc3ccccc3c(=O)c12	-1
CC1=CC(=O)C=CC1(C)C(Cl)(Cl)Cl (stereo not given)	-1
CCOc1ccc(C(CN2CCOCC2)C(C)=O)cc1OC (stereo not given)	-1
O=C(Nc1ccc(Cl)c(Cl)c1)Nc1ccccc1O	-1
COC(=O)C(=[N+]=[N-])C(=O)c1ccc([N+](=O)[O-])o1	-1
O=[N+]([O-])c1ccc(C2N(Cc3ccc(Cl)cc3)CCN2Cc2ccc(Cl)cc2)cc1	-1
CCN1/C(=C/C(C)=C/c2sc3ccc4ccccc4c3[n+]2CC)Sc2ccc3ccccc3c21	1
NNc1ccc(Cl)cc1Cl	-1
CCCN(CCC)C(=O)c1ccc(C)cc1	-1
CC(C)(C)CC(C)(C)c1ccc(OCCOCCSC(=N)N)cc1	1
Cn1ccc(=Nc2ccc(NC(=O)c3ccc(N=c4ccn(C)c5ccc([N+](=O)[O-])cc45)cc3)cc2)cc1	-1
O=C(OC12CC3CC(CC(C3)C1)C2)c1ccc(NCc2cc(O)ccc2O)cc1	1
CC(C)(C)c1ccc(O)c(-c2ccccc2)c1	-1
Nc1nc(N)c2cc(Sc3cccc(C(F)(F)F)c3)ccc2n1	-1
Nc1cc(-c2ccccc2)ccc1O	-1
C1=C(c2ccccc2)c2ccccc2C1	-1
O=[N+]([O-])c1ccc(N2CCN(Cc3ccccc3)CC2)c2c1no[n+]2[O-]	1
